The reported measurements were obtained from patent US20260258050A1.

target-of-assay: Human IL-17AF (Homo sapiens, UniProt Q16552+Q96PD4)
protocol-notes: IL-17AF ELISA (competitive ELISA, IL-17AF/IL-17Ra receptor-ligand binding)
setup-conditions: human IL-17AF coated plate, human IL-17Ra, read-out: IC50, inhibitory activity of compounds on human IL-17AF
pIC50: −log10 of the molar value.
attribute-measured: pIC50

molecule: Cc1[nH]nc2c1-c1cc(F)c(NC(=O)[C@@H](NC(=O)c3conc3C3CC3)C(C3CC3)C3CC3)cc1COCC2 [compound 34]
target-of-assay: Human IL-17AF (Homo sapiens, UniProt Q16552+Q96PD4)
pIC50: ≥ 7.00
//
molecule: Cc1[nH]nc2c1-c1cnc(NC(=O)[C@@H](NC(=O)c3ccnn3C(C)C)C(C3CC3)C3CC3)cc1CN(C(C)C)C(=O)C2 [compound 195]
target-of-assay: Human IL-17AF (Homo sapiens, UniProt Q16552+Q96PD4)
pIC50: 6.30 to 7.00
//
molecule: Cc1[nH]nc2c1-c1cc(F)c(NC(=O)[C@@H](NC(=O)c3ccc(C#N)n3C)C(C3CC3)C3CC3)cc1COCC2 [compound 227]
target-of-assay: Human IL-17AF (Homo sapiens, UniProt Q16552+Q96PD4)
pIC50: 6.30 to 7.00
//
molecule: Cc1[nH]nc2c1-c1cc(F)c(NC(=O)[C@@H](NC(=O)c3ccnn3C(C)C)C(C3CC3)C3CC3)cc1CN(C1CC(F)(F)C1)C(=O)C2 [compound 169]
target-of-assay: Human IL-17AF (Homo sapiens, UniProt Q16552+Q96PD4)
pIC50: ≥ 7.00
//
molecule: Cc1[nH]nc2c1-c1cc(F)c(NC(=O)[C@@H](NC(=O)c3ccnn3C(C)C)C(C3CC3)C3CC3)cc1CN(C1CC1)CC2 [compound 165]
target-of-assay: Human IL-17AF (Homo sapiens, UniProt Q16552+Q96PD4)
pIC50: 6.30 to 7.00
//
molecule: Cc1[nH]nc2c1-c1cnc(NC(=O)[C@@H](NC(=O)c3ccnn3C(C)C)C(C3CC3)C3CC3)cc1CN(C1CC(F)(F)C1)C(=O)C2 [compound 194]
target-of-assay: Human IL-17AF (Homo sapiens, UniProt Q16552+Q96PD4)
pIC50: 6.30 to 7.00
//
molecule: Cc1[nH]nc2c1-c1cnc(NC(=O)[C@@H](NC(=O)c3ccnn3C(C)C3CC3)C(C3CC3)C3CC3)cc1COCC2 (single isomer, unassigned) [compound 188b]
target-of-assay: Human IL-17AF (Homo sapiens, UniProt Q16552+Q96PD4)
pIC50: 6.30 to 7.00
//
molecule: Cc1[nH]nc2c1-c1cc(F)c(NC(=O)[C@@H](NC(=O)c3ccnn3CC3CCC3)C(C3CC3)C3CC3)cc1COCC2 [compound 60]
target-of-assay: Human IL-17AF (Homo sapiens, UniProt Q16552+Q96PD4)
pIC50: ≥ 7.00
//
molecule: Cc1[nH]nc2c1-c1ccc(NC(=O)[C@@H](NC(=O)c3ccnn3C)C(C3CC3)C3CC3)cc1CN(C)CC2 [compound 26]
target-of-assay: Human IL-17AF (Homo sapiens, UniProt Q16552+Q96PD4)
pIC50: 6.30 to 7.00
//
molecule: Cc1[nH]nc2c1-c1cc(F)c(NC(=O)[C@@H](NC(=O)c3ccnn3CC(C)(F)F)C(C3CC3)C3CC3)cc1COCC2 [compound 87]
target-of-assay: Human IL-17AF (Homo sapiens, UniProt Q16552+Q96PD4)
pIC50: 6.30 to 7.00

Human IL-17AF (Homo sapiens, UniProt Q16552+Q96PD4) / pIC50 / COCCn1nccc1C(=O)N[C@H](C(=O)Nc1cc2c(cc1F)-c1c(n[nH]c1C)CCOC2)C(C1CC1)C1CC1 [compound 57] : value?
6.30 to 7.00

Try this molecule next: Cc1[nH]nc2c1-c1cc(F)c(NC(=O)[C@@H](NC(=O)c3ccnn3CCCF)C(C3CC3)C3CC3)cc1COCC2 [compound 86]
≥ 7.00

Cc1[nH]nc2c1-c1cc(F)c(NC(=O)[C@@H](NC(=O)c3ccnn3CC3(C#N)CC3)C(C3CC3)C3CC3)cc1COCC2 [compound 114] ?
≥ 7.00

* * *

Measured IC50 by item
target-of-assay: Human IL-17AF (Homo sapiens, UniProt Q16552+Q96PD4)
Sequence (Q16552 24-155): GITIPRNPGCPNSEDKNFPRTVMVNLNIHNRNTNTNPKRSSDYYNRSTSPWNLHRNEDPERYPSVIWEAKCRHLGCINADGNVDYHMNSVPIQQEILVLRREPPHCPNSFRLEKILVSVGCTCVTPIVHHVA
Sequence (Q96PD4 31-163): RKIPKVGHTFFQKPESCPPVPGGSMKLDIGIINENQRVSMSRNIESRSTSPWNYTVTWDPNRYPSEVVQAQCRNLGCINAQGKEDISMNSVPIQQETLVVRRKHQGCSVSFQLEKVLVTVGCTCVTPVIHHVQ
protocol-notes: IL-17AF ELISA (competitive ELISA, IL-17AF/IL-17Ra receptor-ligand binding)
setup-conditions: human IL-17AF coated plate, human IL-17Ra, read-out: IC50, inhibitory activity of compounds on human IL-17AF

molecule: Cc1[nH]nc2c1-c1cnc(NC(=O)[C@@H](NC(=O)c3ccnn3C(C)CF)C(C3CC3)C3CC3)cc1COCC2 (single isomer, unassigned) [compound 189a]
IC50: 100 to 500 nM
//
molecule: Cc1[nH]nc2c1-c1cc(F)c(NC(=O)[C@@H](NC(=O)c3ccnn3CCCF)C(C3CC3)C3CC3)cc1CN(C1CC1)CC2 [compound 218]
IC50: ≤ 100 nM
//
molecule: [2H]C([2H])([2H])C([2H])(n1nccc1C(=O)N[C@H](C(=O)Nc1cc2c(cc1F)-c1c(n[nH]c1C)CCOC2)C(C1CC1)C1CC1)C([2H])([2H])[2H] [compound 89]
IC50: 100 to 500 nM
//
molecule: COCCN1Cc2cc(NC(=O)[C@@H](NC(=O)c3ccnn3C3CC3)C(C3CC3)C3CC3)c(F)cc2-c2c(n[nH]c2C)CC1=O [compound 139]
IC50: 100 to 500 nM
//
molecule: Cc1[nH]nc2c1-c1cc(F)c(NC(=O)[C@@H](NC(=O)c3ccnn3C(C)C)C(C3CC3)C3CC3)cc1CN(CC(F)(F)F)CC2 [compound 164]
IC50: 100 to 500 nM

// moving on: another record for IC50
Given Cc1[nH]nc2c1-c1cc(F)c(NC(=O)[C@@H](NC(=O)c3ccnn3CCOC(C)(C)C)C(C3CC3)C3CC3)cc1COCC2 [compound 113] , state its recorded IC50.
100 to 500 nM

* * *

target-of-assay: Human IL-17A (Homo sapiens, UniProt Q16552)
protocol-notes: Inhibition of human IL-17A protein-induced GROα/CXCL1 production in HT-29 cells
Type: cell-based
Set-up: purchased R&D 317-ILB; host or cells: added exogenously to HT-29 cells
setup-conditions: 30 ng/mL human IL-17A protein, 48 h, GROα in supernatant by ELISA kit, read-out: Inhibitory IC50 of compounds on HT-29 cell GROα/CXCL1
attribute-measured: IC50

Observe how each entry below is paired with its result.
compound: Cc1[nH]nc2c1-c1cc(F)c(NC(=O)[C@@H](NC(=O)c3ccnn3CCOCC(F)(F)F)C(C3CC3)C3CC3)cc1COCC2
target-of-assay: Human IL-17A (Homo sapiens, UniProt Q16552)
result: ≤ 100 nM
--
compound: Cc1[nH]nc2c1-c1cnc(NC(=O)[C@@H](NC(=O)c3ccnn3C(C)C(F)F)C(C3CC3)C3CC3)cc1COCC2 (single isomer, unassigned) [compound 190a]
target-of-assay: Human IL-17A (Homo sapiens, UniProt Q16552)
result: 100 to 500 nM

Please turn your attention to the following entry.
Query: IC50; subject: CCC(C)n1nccc1C(=O)N[C@H](C(=O)Nc1cc2c(cc1F)-c1c(n[nH]c1C)CCOC2)C(C1CC1)C1CC1 (single isomer, unassigned) [compound 123b]
100 to 500 nM

* * *

Let's look at some compounds and their measured pIC50.
target-of-assay: Human IL-17A (Homo sapiens, UniProt Q16552)
protocol-notes: Inhibition of human IL-17A protein-induced GROα/CXCL1 production in HT-29 cells
Assay type: cell-based
Set-up: purchased R&D 317-ILB; host or cells: added exogenously to HT-29 cells
setup-conditions: 30 ng/mL human IL-17A protein, 48 h, GROα in supernatant by ELISA kit, read-out: Inhibitory IC50 of compounds on HT-29 cell GROα/CXCL1
pIC50: −log10 of the molar value.

compound: Cc1[nH]nc2c1-c1cc(F)c(NC(=O)[C@@H](NC(=O)c3ccnn3C[C@@H]3C[C@H]3F)C(C3CC3)C3CC3)cc1COCC2
target-of-assay: Human IL-17A (Homo sapiens, UniProt Q16552)
pIC50: ≥ 7.00

Quick one: pIC50 of Cc1[nH]nc2c1-c1cnc(NC(=O)[C@@H](NC(=O)c3ccnn3C(C)C)C(C3CC3)C3CC3)cc1CN(CC(F)F)CC2 ?
≥ 7.00

COCCCn1nccc1C(=O)N[C@H](C(=O)Nc1cc2c(cc1F)-c1c(n[nH]c1C)CCOC2)C(C1CC1)C1CC1 , same question.
6.30 to 7.00

Now the same for Cc1[nH]nc2c1-c1cc(F)c(NC(=O)[C@@H](NC(=O)c3ccnn3C(C)C)[C@H]3CC[C@H](C)CC3)cc1COCC2
6.30 to 7.00

What do you get for CSCC(C)n1nccc1C(=O)N[C@H](C(=O)Nc1cc2c(cc1F)-c1c(n[nH]c1C)CCOC2)C(C1CC1)C1CC1 (single isomer, unassigned) [compound 40a] ?
6.30 to 7.00

CCn1nccc1C(=O)N[C@H](C(=O)Nc1cc2c(cn1)-c1c(n[nH]c1C)CCOC2)C(C1CC1)C1CC1 ?
6.30 to 7.00
